Would you mind telling me the reported protein stability index of each entry?
B1: TOR1AIP2 (parent)
chain: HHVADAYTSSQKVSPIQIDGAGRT

- Variants of: B1
- experimentalDetails: protein stability index of a GFP-peptide fusion (GPS, HEK-293T) (PSI 1-6); higher = more stable;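 note: lentivirally expressed fusions sorted by FACS into six bins by GFP to DsRed ratio, PSI derived from sequencing read proportions per bin multiplied by bin number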
- experimentalContext: c terminus: a fixed tail appended
Give bare numbers.

residuechange=S10F assayresult=2.95
residuechange=G22E assayresult=3.93
residuechange=Y7C assayresult=4.19

Here are 6 variants. What values of protein stability index were reported for them?
1. A4I
2. I18R
3. P15C
4. I16C
5. H2C
6. V13T

1: 3.01; 2: 3.58; 3: 3.66; 4: 3.31; 5: 3.5; 6: 3.8

Here are 2 variants. What values of protein stability index were reported for them?
1. S9M
2. H2S

[3.52, 4.08]

Here are 5 variants. What values of protein stability index were reported for them?
1. V13S
2. H1K
3. Q11F
4. S14R
5. P15E

3.79
3.94
2.65
3.26
3.82
